Molecular target: Nrg2 (UniProt P38082)
Sequence: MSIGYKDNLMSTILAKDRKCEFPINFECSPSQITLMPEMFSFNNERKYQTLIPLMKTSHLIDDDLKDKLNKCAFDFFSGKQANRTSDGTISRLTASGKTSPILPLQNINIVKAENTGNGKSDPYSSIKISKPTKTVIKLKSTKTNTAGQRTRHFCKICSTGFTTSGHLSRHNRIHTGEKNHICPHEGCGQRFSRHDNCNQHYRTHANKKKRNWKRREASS
Test: PBM E-score (8-mer binding enrichment) (E-score (-0.5 to 0.5)); higher = stronger / more preferred TF binding
Settings: protein concentration: 100 nM; construct: GST-full length
In all, about 33,000 sequences were measured (“E-score (-0.5 to 0.5)”: median about -8e-05, highest 2% from about 0.23 on). Many of the other results were omitted from the sample, so the highest values are more common in it than they were.
readout: PBM E-score
Reply with the value as a number alone.

ACAACATC : -0.042
CGCTTGAA : 0.263
GGATAGTA : 0.177

// fetch PBM E-score; item: AACACGAC ; system: Nrg2 (UniProt P38082) 0.0492
